# assay: Stability of peptides in HepG2 whole cell lysate
# Type: in vitro ADME
# condition_details: human, HepG2 lysate, 30 mins, read-out: % intact peptide
Non-standard residues stand in square brackets, D forms with d. Residues, ends and D or L forms follow the SMILES beside them. Ala(7-MeO-coumarin-4-yl) = COc1ccc2c(C[C@H](N)C(=O)O)cc(=O)oc2c1

[
  {
    "molecule": "COc1ccc2c(C[C@H](NC(=O)[C@H](C)NC(=O)[C@H](CCCNC(=N)N)NC(=O)[C@H](Cc3ccccc3)NC(=O)[C@H](CC(C)C)NC(=O)[C@H](Cc3c[nH]cn3)NC(=O)[C@@H](N)Cc3cc(=O)oc4cc(OC)ccc34)C(=O)O)cc(=O)oc2c1 [R1A, μHLFRAμ] (H-[Ala(7-MeO-coumarin-4-yl)]HLFRA[Ala(7-MeO-coumarin-4-yl)]-OH)",
    "remaining at 0.5 h, 20 μM": "6.92%"
  }
]
